Hey, just so you know, these numbers are from PubChem BioAssay (Tox21).

- ASSAY: qHTS assay to identify small molecule antagonists of the sonic hedgehog signaling (Shh) pathway (AID 1259369); note: nearly all actives have a fitted effect of over 45% in size
- RUN_CONDITIONS: NIH/3T3 Gli1-Luc reporter, Shh antagonist, luminescence 24 h; series mostly up to 92.4 µM
Inconclusive results are not listed. Calls of active or inactive are those of the source. Calls come from the whole dose curve.
// allowed return values: yes (1) (active), no (0) (inactive)

Can you look up the reported call for CCC1(C)NC(=O)NC1=O (centres undefined) for me? no (0)

Each compound tested received a call. Report the one for C=CCCC=C . no (0)

How was FC(F)(F)C(Cl)(Cl)Cl classified in this test? no (0)

What did this assay record as the result for CC[C@H]1CC[C@H](NCc2cc3c(cc2OC)[C@H]2C[C@H]2C(=O)N3C)[C@H](c2ccccc2)N1 ? yes (1)

How was CCOc1ccc(OCC)c(Cl)c1 classified in this test? no (0)

What is the recorded call for this compound in the test? CCC(=O)c1ccc2c(c1)N(CCCN(C)C)c1ccccc1S2 no (0)

What outcome does the record of this test show for Cc1cccc(C)c1NC(=O)CN1CCCCCC1 ? no (0)

Could you please tell me the result logged for O=[N+]([O-])c1nccn1CO[C@@H](CO)[C@H](O)CO in this assay? no (0)

For CC/C=C\CCOC(=O)C(C)C , what call appears in the results of this test? no (0)

---

- ASSAY: qHTS assay to identify small molecule agonists of H2AX (AID 1224845); note: % is set by controls: 0 for no effect and ±100 for the full control effect
- RUN_CONDITIONS: CHO-K1 phospho-H2AX Ser139 HTRF, 3 h; series mostly up to 154 µM
Inconclusive results are not listed. Activity calls are given as the source filed them. Calls come from the whole dose curve; as a rule, active = well fitted activation curve with a large enough effect in the signal ratio in the repeat runs (not every such curve was filed as active); inconclusive = weak or mixed curves; inactive = flat fitted curve, though single readings scatter; the % refers to the signal ratio.
METRIC_NAME: activation (H2AX phosphorylation)

Check the records and state activation (H2AX phosphorylation) for CCN(CC)CCNC(=O)COc1ccc(Cl)cc1 inactive

Please give the documented activation (H2AX phosphorylation) of CC(C)C1=CC2=CC[C@@H]3[C@](C)(CCC[C@@]3(C)C(=O)O)[C@H]2CC1 inactive

Please list activation (H2AX phosphorylation) recorded for the compound O=c1[nH]cnc2c1ncn2[C@@H]1O[C@H](CO)[C@@H](O)[C@H]1O inactive

Dear colleague, please send me the reported activation (H2AX phosphorylation) for Cc1c(-c2ccccc2)oc2c(C(=O)OCCN3CCCCC3)cccc2c1=O when you can. inactive

Answer with the recorded activation (H2AX phosphorylation) of Cc1ccsc1C(=CCCN1CCC[C@@H](C(=O)O)C1)c1sccc1C only. inactive

---
Give activation (H2AX phosphorylation) for the following compound: CC(=O)OC1C2(C)CCC(C2)C1(C)C (stereo unspecified) inactive

Read the entry CC(C)OC(C)C and write its reported activation (H2AX phosphorylation). inactive

Given the compound NC1=NCC2c3ccccc3Cc3ccccc3N12 (stereo unspecified) , write its reported activation (H2AX phosphorylation). inactive

Fill in reported activation (H2AX phosphorylation) for this entry: NCCCN1CCN(CCCN)CC1 inactive

Tell me its activation (H2AX phosphorylation) given O=C1Nc2ccc([N+](=O)[O-])cc2C1=O as the entry. inactive

Identify activation (H2AX phosphorylation) associated with the compound CCCCCCCCc1ccc(S(=O)(=O)O)cc1 inactive

Return value of activation (H2AX phosphorylation) for input CC(=O)OC(C)OC(C)=O , no commentary. inactive

Consider the compound C[C@]12CCC(=O)C=C1CC[C@@H]1[C@@H]2CC[C@@]2(C)[C@H]1CC[C@]2(O)C(=O)CO and give its recorded activation (H2AX phosphorylation). inactive

Give the reported activation (H2AX phosphorylation) for this compound. Cc1ccc(C(C)C)cc1O inactive

Check the records and state activation (H2AX phosphorylation) for CCOC(=O)CS inactive
